System: RBL-2H3 cells
Assay Explanation: Inhibition of 3H-serotonin release induced by ADNP/DNP-HSA immunogenic stimulation in RBL-2H3 cells
Format: cell-based, rat
Condition Context: read-out: ED50, inhibition of 3H-serotonin release; + anandamide (12.5 μM) (Table 5); 15 min
Measurement Label: IC50 (µM)
Expressed in µM, but write only the number.

// below: answered compounds
Compound | IC50 / µM
CCCCCCC(C)(C)c1cc(O)c2c(c1)OC(C)(C)[C@@H]1CCC(=O)C[C@@H]21 (relative stereo) [Nabilone, reference compound] | 5
CCCCCCCCCCCCCCCC(=O)N[C@@H](CO)c1ccccc1 | 4
CCCCCCCCCCCC(=O)NCCCO [Example 12, N-(3-hydroxypropyl)-lauroylamide] | 29

(Q) Supply reported IC50 belonging to this compound: CCCCCCCCCCCCCCCCCC(=O)NCCO [Example 23, N-(2-hydroxyethyl)-stearoylamide]
(A) 10.1

(Q) State, in one line, measured IC50 of `O=C(/C=C/CCCCCCCCC(=O)NCCO)NCCO`
(A) 50

(Q) Look up IC50 of CCCCCCCCCCCCCCCC(=O)NCCOP(=O)(O)O [Example 27, N-palmitoylethanolamide phosphate] and report it.
(A) 9.5

(Q) Please give the documented IC50 of Cc1c(C(=O)c2cccc3ccccc23)c2cccc3c2n1[C@H](CN1CCOCC1)CO3 [WIN 55,212-2, reference compound]
(A) 40
